- System: pigweed (Amaranthus retroflexus)
- ASSAY TEXT: Test A preemergence, directed soil spray, visual injury rating
- Type: in vivo
- APPLIED CONDITIONS: 31 g ai/ha, 0 is no effect, 100 is complete control
VALUE TYPE: Plant response rating (0 to 100 scale), Pigweed
Write no unit; give the number alone.

Query :: Give its Plant response rating (0 to 100 scale), Pigweed value. Item: "Cc1ccc2sc(Cl)cc2c1-c1c(O)c(C)nn(C)c1=O"
Result :: 100

Query :: Thanks! And "CCC(=O)Oc1c(C)nn(C)c(=O)c1-c1cccc2cc(C)oc12" ?
Result :: 0

Query :: Can you handle "COC(=O)Oc1c(C)nn(C)c(=O)c1-c1ccc(Cl)c2ccsc12" next?
Result :: 0

Query :: Another compound to look at: "Cn1nc(Cl)c(O)c(-c2cccc3[nH]nnc23)c1=O"
Result :: 0

Query :: Now the compound "COC(=O)Oc1c(C)nn(C)c(=O)c1-c1ccc(Cl)c2oc(C)cc12"
Result :: 0

Query :: Would you kindly repeat that for "CC(=O)Oc1c(C)nn(C)c(=O)c1-c1c(C(F)(F)F)ccc2cc(C)oc12" ?
Result :: 20

Query :: Same thing, different compound: "CC(=O)Oc1c(Cl)nn(C)c(=O)c1-c1nccc2ccccc12"
Result :: 10

Query :: "COC(=O)Oc1c(C)nn(C)c(=O)c1-c1ccc(Cl)c2sccc12" , same question.
Result :: 0

Query :: Same question, "Cn1nc(Cl)c(O)c(-c2ccc(F)c3ccoc23)c1=O" this time
Result :: 10

---

- System: ragweed (common ragweed, Ambrosia elatior)
- ASSAY TEXT: Test A postemergence application, visual injury rating
- Assay type: in vivo
- APPLIED CONDITIONS: Ambrosia artemisiifolia, post-emergence, 240 h, 500 g ai/ha, 0 to 100 scale, 0 no effect, 100 complete control, read-out: Ragweed plant response rating
VALUE TYPE: pest or weed control at 500 g/ha (%)
I only need the number, in %, no unit after it.

Query :: Name the reported pest or weed control at 500 g/ha value associated with the compound Cc1cc2cccc(-c3c(O)c(C)nn(C)c3=O)c2o1 [Compound 12]
Result :: 80

Query :: Another compound: CCOC(=O)Oc1c(C)nn(C)c(=O)c1-c1c(C)ccc2sccc12 [Compound 30]
Result :: 90

Query :: And what about the compound Cc1nn(C)c(=O)c(-c2cccc3snc(C)c23)c1O [Compound 25] ?
Result :: 90

---

Please respond with reported Kochia plant response rating for every item in the list.
- Tested on: kochia (Kochia scoparia)
- ASSAY TEXT: Test A postemergence application, visual injury rating
- Format: in vivo
- APPLIED CONDITIONS: 125 g ai/ha, 0 to 100 scale, 0 no effect, 100 complete control
In your answer, state the number alone without any accompanying words.

Query :: Give its Kochia plant response rating value. Item: "CCOC(=O)Oc1c(C)nn(C)c(=O)c1-c1cccc2sccc12"
Result :: 0

Query :: // query: "CC(=O)Oc1c(C)nn(C)c(=O)c1-c1c(C(F)(F)F)ccc2cc(C)oc12"
Result :: 70

Query :: Proceed to "CCc1sc2ncccc2c1-c1c(OC(=O)C2CC2)c(C)nn(C)c1=O"
Result :: 0

Query :: # repeat for "COC(=O)Oc1c(C)nn(C)c(=O)c1-c1ccc(Cl)c2sccc12"
Result :: 60

Query :: Record: "Cc1cc2c(-c3c(OC(=O)c4ccccc4)c(C)nn(C)c3=O)ccc(Cl)c2o1"
Result :: 0

Query :: Also "CCOC(=O)Oc1c(C)nn(C)c(=O)c1-c1c(CC)sc2ncccc12" , if possible.
Result :: 0

---

- Tested on: wheat (Triticum aestivum)
- ASSAY TEXT: Test A postemergence application, visual injury rating
- Format: in vivo
- APPLIED CONDITIONS: 125 g ai/ha, 0 to 100 scale, 0 no effect, 100 complete control
Provide the reported Wheat plant response rating of each item.
Lab note: jot the number down without any unit.

Query :: Give the reported Wheat plant response rating for "CCOC(=O)Oc1c(C)nn(C)c(=O)c1-c1c(C)sc2ncc(C)cc12" (system: wheat (Triticum aestivum)).
Result :: 0

Query :: Can you check "CC(=O)Oc1c(C)nn(C)c(=O)c1-c1cncc2ccccc12" next?
Result :: 0

Query :: Field entry: "CC(=O)Oc1c(C)nn(C)c(=O)c1-c1ccc(Cl)c2cc(C)oc12"
Result :: 0

---

- System: ducksalad (Heteranthera limosa)
- ASSAY TEXT: Test B flooded paddy test, visual rating
- Format: in vivo
- APPLIED CONDITIONS: Flood, 250 g ai/ha, applied to paddy water, rated after 13 to 15 d
VALUE TYPE: Ducksalad plant response rating (0 to 100 scale, 0 is no effect, 100 is complete control)

Query :: Ducksalad plant response rating (0 to 100 scale, 0 is no effect, 100 is complete control) for CCc1sc2ncccc2c1-c1c(OC(=O)OC(C)C)c(C)nn(C)c1=O [Compound 20] ?
Result :: 0

Query :: Likewise for CCC(=O)Oc1c(C)nn(C)c(=O)c1-c1c(C)ccc2sccc12 [Compound 31] ?
Result :: 0

Query :: Do the same for Cc1cc2c(-c3c(O)c(C)nn(C)c3=O)ccc(Cl)c2o1 [Compound 45] please
Result :: 30

Query :: Quick one: CCC(=O)Oc1c(C)nn(C)c(=O)c1-c1cccc2cc(C)oc12 [Compound 26]
Result :: 0

---

- Test system: foxtail, giant (giant foxtail, Setaria faberii)
- ASSAY TEXT: Test A postemergence application, visual injury rating
- Type: in vivo
- APPLIED CONDITIONS: 125 g ai/ha, 0 to 100 scale, 0 no effect, 100 complete control
VALUE TYPE: Foxtail, Giant plant response rating
# respond with the number and nothing more

Query :: Look up Foxtail, Giant plant response rating: "Cc1nn(C)c(=O)c(-c2ccc(Cl)c3ccsc23)c1O"
Result :: 0

Query :: Now consider "Cc1cc2c(-c3c(OC(=O)c4ccccc4)c(C)nn(C)c3=O)ccc(Cl)c2o1" .
Result :: 0

Query :: Repeat for the following compound: "CCC(=O)Oc1c(C)nn(C)c(=O)c1-c1ccc(Cl)c2sccc12"
Result :: 0

Query :: What would you report for "Cc1cc2c(Cl)ccc(-c3c(OC(=O)c4ccccc4)c(C)nn(C)c3=O)c2o1" ?
Result :: 10

Query :: Field entry: "CCC(=O)Oc1c(C)nn(C)c(=O)c1-c1ccc(Cl)c2cc(C)oc12"
Result :: 60

Query :: Request: "CC(=O)Oc1c(Cl)nn(C)c(=O)c1-c1nccc2ccccc12"
Result :: 10

---

- System: kochia (Kochia scoparia)
- ASSAY TEXT: Test A postemergence application, visual injury rating
- Type: in vivo
- APPLIED CONDITIONS: 125 g ai/ha, 0 to 100 scale, 0 no effect, 100 complete control
VALUE TYPE: Kochia plant response rating
Answer field: number only, no words.

Query :: May I ask what Kochia plant response rating has been recorded for "Cc1cc2ccc(C(F)(F)F)c(-c3c(O)c(C)nn(C)c3=O)c2o1" ?
Result :: 80

Query :: Likewise for "Cc1cnc2sc(C)c(-c3c(OC(=O)C4CC4)c(C)nn(C)c3=O)c2c1" ?
Result :: 40

Query :: "CCC(=O)Oc1c(C)nn(C)c(=O)c1-c1ccc(Cl)c2cc(C)oc12" ?
Result :: 0

Query :: Thanks! And "Cc1nn(C)c(=O)c(-c2c(C)sc3ncccc23)c1OC(=O)OC(C)C" ?
Result :: 0

---

So I've got a bunch of compounds here, and I need their Plant response rating (0 to 100 scale), Kochia values.
- Test system: kochia (Kochia scoparia)
- ASSAY TEXT: Test A preemergence, directed soil spray, visual injury rating
- Format: in vivo
- APPLIED CONDITIONS: 500 g ai/ha, 0 is no effect, 100 is complete control
Answer with a bare number; do not write a unit.

Query :: Request body: readout Plant response rating (0 to 100 scale), Kochia, system kochia (Kochia scoparia), query Cc1ccc2ccoc2c1-c1c(O)c(C)nn(C)c1=O [Compound 7] . Return the value.
Result :: 90

Query :: // query: COc1ncc(-c2c(O)c(C)nn(C)c2=O)c2ccccc12 [Compound 16]
Result :: 100

Query :: Proceed to CCOC(=O)Oc1c(C)nn(C)c(=O)c1-c1c(CC)sc2ncccc12 [Compound 19]
Result :: 0

Query :: Repeat with CCOC(=O)Oc1c(C)nn(C)c(=O)c1-c1cccc2sccc12 [Compound 5]
Result :: 30

Query :: // repeat for Cc1nn(C)c(=O)c(-c2c(C)sc3ncccc23)c1OC(=O)OC(C)C [Compound 15] and report
Result :: 0

Query :: Also Cc1nc2c(-c3c(O)c(C)nn(C)c3=O)cccc2s1 [Compound 27] , if possible.
Result :: 0

Query :: Param item: CCC(=O)Oc1c(C)nn(C)c(=O)c1-c1cccc2sccc12 [Compound 4]
Result :: 60

Query :: Could you do the same for Cc1nn(C)c(=O)c(-c2c(C)sc3ncccc23)c1OC(=O)C1CC1 [Compound 23] , please?
Result :: 0
